assay: Oral bioavailability in rat; type: ADME, organism-based; details: in vivo
assay_readout: bioavailability

Answered cases to consult:
# cpd_smiles, result
data = [
    ("C[C@H](CCCC(C)(C)O)[C@H]1CC[C@H]2[C@@H]3CC=C4C[C@@H](O)CC[C@]4(C)[C@H]3CC[C@]12C", "6%"),
    ("C[C@H](CC[C@@H](O)C(F)(F)F)[C@H]1CC[C@H]2[C@@H]3CC=C4C[C@@](C)(O)CC[C@]4(C)[C@H]3CC[C@]12C", "70%"),
    ("C[C@H](CC[C@@H](O)C1CCC1)[C@H]1CC[C@H]2[C@@H]3CC=C4C[C@@](C)(O)CC[C@]4(C)[C@H]3CC[C@]12C", "18%"),
]

# ---- query molecule ----
# bioavailability lookup, item CC(C)[C@@H](O)CC[C@@H](C)[C@H]1CC[C@H]2[C@@H]3CC=C4C[C@@](C)(O)CC[C@]4(C)[C@H]3CC[C@]12C
15%

* * *

molecular target: Glutamate NMDA receptor; GRIN1/GRIN2B (Homo sapiens, UniProt Q05586+Q13224); experiment: Positive allosteric modulation of recombinant human GluN1/GluN2B receptor stably expressed in HEK293 cells assessed as increase in glycine/L-glutamate-induced channel current at -70 mV holding potential by IonWork whole cell patch clamp method relative to control
assay_readout: Emax (%)
The answer is to be given in %; state only the numeric part.

# compound, quantitative_readout
records = [
    ("C[C@H](CC[C@@H](O)C1CC1)[C@H]1CC[C@H]2[C@@H]3CC=C4C[C@@](C)(O)CC[C@]4(C)[C@H]3CC[C@]12C", 280),
    ("CC(O)CC[C@@H](C)[C@H]1CC[C@H]2[C@@H]3CC=C4C[C@@H](O)CC[C@]4(C)[C@H]3CC[C@]12C (stereo not given in full)", 180),
    ("CC[C@H](O)CC[C@@H](C)[C@H]1CC[C@H]2[C@@H]3CC=C4C[C@@](C)(O)CC[C@]4(C)[C@H]3CC[C@]12C", 160),
    ("CC(C)[C@@H](O)CC[C@@H](C)[C@H]1CC[C@H]2[C@@H]3CC=C4C[C@@](C)(O)CC[C@]4(C)[C@H]3CC[C@]12C", 230),
    ("C[C@H](CC[C@H](O)C1CCC1)[C@H]1CC[C@H]2[C@@H]3CC=C4C[C@@](C)(O)CC[C@]4(C)[C@H]3CC[C@]12C", 530),
    ("C[C@H](CC[C@H](O)C1CC1)[C@H]1CC[C@H]2[C@@H]3CC=C4C[C@@](C)(O)CC[C@]4(C)[C@H]3CC[C@]12C", 150),
    ("C[C@H](CCC1(O)CC1)[C@H]1CC[C@H]2[C@@H]3CC=C4C[C@@](C)(O)CC[C@]4(C)[C@H]3CC[C@]12C", 180),
    ("CC[C@@H](O)CC[C@@H](C)[C@H]1CC[C@H]2[C@@H]3CC=C4C[C@@](C)(O)CC[C@]4(C)[C@H]3CC[C@]12C", 130),
    ("C[C@H](CCC1(O)CC1)[C@H]1CC[C@H]2[C@@H]3CC=C4C[C@@H](O)CC[C@]4(C)[C@H]3CC[C@]12C", 280),
    ("C[C@H](CC[C@@H](O)C(F)(F)F)[C@H]1CC[C@H]2[C@@H]3CC=C4C[C@@](C)(O)CC[C@]4(C)[C@H]3CC[C@]12C", 230),
]

Reported Emax for Glutamate NMDA receptor; GRIN1/GRIN2B (Homo sapiens, UniProt Q05586+Q13224), given C[C@H](CCC(C)(C)O)[C@H]1CC[C@H]2[C@@H]3CC=C4C[C@@](C)(O)CC[C@]4(C)[C@H]3CC[C@]12C ?
92

Further, for CC(C)(O)CCC[C@H]1CC[C@H]2[C@@H]3CC=C4C[C@@](C)(O)CC[C@]4(C)[C@H]3CC[C@]12C ?
120

Also check CC(C)[C@H](O)CC[C@@H](C)[C@H]1CC[C@H]2[C@@H]3CC=C4C[C@@](C)(O)CC[C@]4(C)[C@H]3CC[C@]12C
230

# repeat for C[C@H](CC[C@@H](O)C1CCC1)[C@H]1CC[C@H]2[C@@H]3CC=C4C[C@@](C)(O)CC[C@]4(C)[C@H]3CC[C@]12C
410

Next compound: C[C@H](CCC(C)(C)O)[C@H]1CC[C@H]2[C@@H]3CC=C4C[C@@H](O)CC[C@]4(C)[C@H]3CC[C@]12C
140

* * *

target: Glutamate NMDA receptor; GRIN1/GRIN2A (Homo sapiens, UniProt Q05586+Q12879); test: Positive allosteric modulation of recombinant human GluN1/GluN2A receptor stably expressed in HEK293 cells assessed as increase in glycine/L-glutamate-induced channel current at -70 mV holding potential by IonWork […] method relative to control; format: cell-based
// reported Emax per item
Express the result in % but write the number alone.

Would you please look over these solved cases?
# cpd_smiles, unit_of_measure, Emax
records = [
    ("C[C@H](CC[C@@H](O)C1CC1)[C@H]1CC[C@H]2[C@@H]3CC=C4C[C@@](C)(O)CC[C@]4(C)[C@H]3CC[C@]12C", "%", 220),
    ("C[C@H](CC[C@@H](O)C(F)(F)F)[C@H]1CC[C@H]2[C@@H]3CC=C4C[C@@](C)(O)CC[C@]4(C)[C@H]3CC[C@]12C", "%", 150),
    ("C[C@H](CCC1(O)CC1)[C@H]1CC[C@H]2[C@@H]3CC=C4C[C@@](C)(O)CC[C@]4(C)[C@H]3CC[C@]12C", "%", 300),
    ("C[C@H](CCC(C)(C)O)[C@H]1CC[C@H]2[C@@H]3CC=C4C[C@@](C)(O)CC[C@]4(C)[C@H]3CC[C@]12C", "%", 220),
    ("C[C@H](CC[C@@H](O)C1CCC1)[C@H]1CC[C@H]2[C@@H]3CC=C4C[C@@](C)(O)CC[C@]4(C)[C@H]3CC[C@]12C", "%", 250),
]

I'd like to know its Emax. The compound in question is CC[C@@H](O)CC[C@@H](C)[C@H]1CC[C@H]2[C@@H]3CC=C4C[C@@](C)(O)CC[C@]4(C)[C@H]3CC[C@]12C
220

* * *

Form field: clearance (one value per entry).
experiment: Clearance in iv dosed rat; format: ADME, organism-based; settings: in vivo
Please reply with the bare figure in mL/min/kg and do not write the unit itself.

# cpd_smiles, clearance [mL/min/kg]
rows = [
    ("C[C@H](CC[C@@H](O)C(F)(F)F)[C@H]1CC[C@H]2[C@@H]3CC=C4C[C@@](C)(O)CC[C@]4(C)[C@H]3CC[C@]12C", 31.7),
    ("CC(C)[C@@H](O)CC[C@@H](C)[C@H]1CC[C@H]2[C@@H]3CC=C4C[C@@](C)(O)CC[C@]4(C)[C@H]3CC[C@]12C", 51.7),
    ("C[C@H](CCCC(C)(C)O)[C@H]1CC[C@H]2[C@@H]3CC=C4C[C@@H](O)CC[C@]4(C)[C@H]3CC[C@]12C", 41.7),
]

// query clearance value for entry CC(C)[C@@H](O)CC[C@@H](C)[C@H]1CC[C@H]2[C@@H]3CC=C4C[C@@H](O)CC[C@]4(C)[C@H]3CC[C@]12C
98.3

Check C[C@H](CC[C@@H](O)C1CCC1)[C@H]1CC[C@H]2[C@@H]3CC=C4C[C@@](C)(O)CC[C@]4(C)[C@H]3CC[C@]12C too.
88.3

* * *

assay: Stability in human liver microsomes; type: ADME, Microsome; settings: read-out: Stability
Measured microsomal CLint of individual entries

# compound, assay_readout, result
rows = [
    ("C[C@H](CCCC(C)(C)O)[C@H]1CC[C@H]2[C@@H]3CC=C4C[C@@H](O)CC[C@]4(C)[C@H]3CC[C@]12C", "microsomal CLint", "23 µL/min/mg"),
    ("C[C@H](CC[C@@H](O)C1CCC1)[C@H]1CC[C@H]2[C@@H]3CC=C4C[C@@](C)(O)CC[C@]4(C)[C@H]3CC[C@]12C", "microsomal CLint", "< 10 µL/min/mg"),
    ("CC(C)[C@H](O)CC[C@@H](C)[C@H]1CC[C@H]2[C@@H]3CC=C4C[C@@](C)(O)CC[C@]4(C)[C@H]3CC[C@]12C", "microsomal CLint", "< 10 µL/min/mg"),
    ("CC(C)[C@@H](O)CC[C@@H](C)[C@H]1CC[C@H]2[C@@H]3CC=C4C[C@@](C)(O)CC[C@]4(C)[C@H]3CC[C@]12C", "microsomal CLint", "< 10 µL/min/mg"),
    ("CC[C@@H](O)CC[C@@H](C)[C@H]1CC[C@H]2[C@@H]3CC=C4C[C@@](C)(O)CC[C@]4(C)[C@H]3CC[C@]12C", "microsomal CLint", "< 10 µL/min/mg"),
    ("C[C@H](CC[C@H](O)C1CC1)[C@H]1CC[C@H]2[C@@H]3CC=C4C[C@@](C)(O)CC[C@]4(C)[C@H]3CC[C@]12C", "microsomal CLint", "< 10 µL/min/mg"),
]

API: the following record is the query input.
// query microsomal CLint value for entry CC(O)CC[C@@H](C)[C@H]1CC[C@H]2[C@@H]3CC=C4C[C@@H](O)CC[C@]4(C)[C@H]3CC[C@]12C (some centres not stated)
7 µL/min/mg
